Target System: 3-phosphoshikimate 1-carboxyvinyltransferase (Escherichia coli K-12)
Sequence (P0A6D3 whole entry): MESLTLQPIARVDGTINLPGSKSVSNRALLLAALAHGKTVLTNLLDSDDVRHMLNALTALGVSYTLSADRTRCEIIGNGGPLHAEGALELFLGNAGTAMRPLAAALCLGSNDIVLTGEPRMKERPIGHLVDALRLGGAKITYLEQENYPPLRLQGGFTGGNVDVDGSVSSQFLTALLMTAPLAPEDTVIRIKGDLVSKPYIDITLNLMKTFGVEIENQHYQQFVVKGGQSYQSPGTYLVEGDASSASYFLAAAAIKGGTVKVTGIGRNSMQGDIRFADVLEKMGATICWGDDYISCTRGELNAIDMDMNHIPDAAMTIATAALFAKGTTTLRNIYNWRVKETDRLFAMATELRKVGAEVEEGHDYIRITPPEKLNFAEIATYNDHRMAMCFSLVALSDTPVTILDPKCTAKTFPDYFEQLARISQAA
Assay Summary: Dissociation constant against EPSP synthase
Experimental Readout: Kd (nM)
Answers are plain numbers, in nM.

The recorded Kd for entry `C[C@@](O[C@@H]1CC(C(=O)O)=C[C@@H](OP(=O)(O)O)[C@H]1O)(C(=O)O)P(=O)(O)O` equals 15
